- assay-system: SLC19A2 (Homo sapiens)
- Sequence (O60779 1-497): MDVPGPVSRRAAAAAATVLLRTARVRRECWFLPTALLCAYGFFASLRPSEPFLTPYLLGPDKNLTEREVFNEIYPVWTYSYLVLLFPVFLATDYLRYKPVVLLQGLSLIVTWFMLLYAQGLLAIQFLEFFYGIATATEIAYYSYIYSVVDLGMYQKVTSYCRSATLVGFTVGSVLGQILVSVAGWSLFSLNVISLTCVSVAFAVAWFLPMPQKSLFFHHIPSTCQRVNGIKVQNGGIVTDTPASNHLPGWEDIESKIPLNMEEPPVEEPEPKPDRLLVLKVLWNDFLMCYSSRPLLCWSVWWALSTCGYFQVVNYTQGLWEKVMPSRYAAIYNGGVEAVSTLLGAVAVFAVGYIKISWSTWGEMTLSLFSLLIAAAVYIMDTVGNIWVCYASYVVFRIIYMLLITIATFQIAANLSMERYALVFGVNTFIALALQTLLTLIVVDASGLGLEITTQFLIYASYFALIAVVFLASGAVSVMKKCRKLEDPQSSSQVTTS
- measurement-notes: IC50 assays for inhibition of SLC19A2-mediated thiamine uptake
- Type: cell-based
- Parameters: host or cells: HEK293, stably overexpressing SLC19A2 and transiently transfected with a further 500 ng wild-type plasmid
- stated-conditions: inhibitor 0 to 1 mM, HEK293
Criterion: IC50 strictly less than 100 µM. Met: True. Not met: False.

Check out these entries, answers already filled in.
Lab log: compare recorded IC50 with 100 µM; is it strictly lower for COc1ccc2[nH]c([S+]([O-])Cc3ncc(C)c(OC)c3C)nc2c1 (stereo not drawn) ?
False

Problem: For the molecule COc1ccnc(C[S+]([O-])c2nc3ccc(OC(F)F)cc3[nH]2)c1OC (stereo not drawn) , is IC50 under 100 µM?
False

State whether 100 µM exceeds IC50 recorded for CCN(CC)CCCC(C)Nc1ccnc2cc(Cl)ccc12 (stereo not drawn) .
False

Is IC50 of CC[C@H]1OC(=O)[C@H](C)[C@@H](O[C@H]2C[C@@](C)(OC)[C@@H](O)[C@H](C)O2)[C@H](C)[C@@H](O[C@@H]2O[C@H](C)C[C@H](N(C)C)[C@H]2O)[C@](C)(O)C[C@@H](C)C(=O)[C@H](C)[C@@H](O)[C@]1(C)O strictly below 100 µM?
True

Decide: IC50 of COc1c(C)c2c(c(O)c1C/C=C(\C)CCC(=O)OCCN1CCOCC1)C(=O)OC2 [Mycophenolate mofetil] strictly below 100 µM?
False

As a next step, examine the molecule that follows.
Is IC50 of N=C(N)NC(=O)c1nc(Cl)c(N)nc1N [Amiloride] strictly below 100 µM?
True

FYI, the data here is from paper PMC7921063.
